# Test system: 361931-004-R-J1-PDC multicell spheroid viability
# Assay: Anticancer human tumor 361931-004-R-J1-PDC patient-derived colon adenocarcinoma cell line growth inhibition [PI3K]
# Measurement parameters: second compound 0.0316 µM; first compound 0.316 µM; hits give low values
Overview of reported viability, T/C across a group of molecules:
Observation type: viability, T/C (%)

* C#Cc1c(F)ccc2cc(O)cc(-c3ncc4c(N5CC6CCC(C5)N6)nc(OCC56CCCN5CC(F)C6)nc4c3F)c12 (stereo not given) + COc1c(OCCCN2CCOCC2)ccc2c3n(c(=NC(=O)c4cnc(N)nc4)nc12)CCN3 | 85.9
* CC(C)NCC(C(=O)N1CCN(c2ncnc3c2C(C)CC3O)CC1)c1ccc(Cl)cc1 (stereo not given) + CC(Nc1ccc2c(c1)OCCn1cc(N3C(=O)OCC3C(F)F)nc1-2)C(N)=O | 76
* CC(Cn1ccc(-c2ccc(C#N)c(Cl)c2)n1)NC(=O)c1cc(C(C)O)[nH]n1 (stereo not given) + COc1c(OCCCN2CCOCC2)ccc2c3n(c(=NC(=O)c4cnc(N)nc4)nc12)CCN3 | 83.5
* C=CC(=O)N1CCN(c2nc(=O)n(-c3c(C)ccnc3C(C)C)c3nc(-c4c(O)cccc4F)c(F)cc23)C(C)C1 (stereo not given) + COc1c(OCCCN2CCOCC2)ccc2c3n(c(=NC(=O)c4cnc(N)nc4)nc12)CCN3 | 90.6
* CC(Cn1ccc(-c2ccc(C#N)c(Cl)c2)n1)NC(=O)c1cc(C(C)O)[nH]n1 (stereo not given) + CC(Nc1ncnc2nc[nH]c12)c1cc2cccc(Cl)c2c(=O)n1-c1ccccc1 | 96.7

====

Overview of reported viability, T/C across a group of molecules:
# System: 361931-004-R-J1-PDC multicell spheroid viability
# Assay: Anticancer human tumor 361931-004-R-J1-PDC cell line growth inhibition [PI3K];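 also: spheroids exposed to agents for seven days before readout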
# Measurement parameters: second compound 0.0316 µM; first compound 0.0316 µM; hits give low values
Observation type: viability, T/C (%)

• CCCS(=O)(=O)Nc1ccc(F)c(C(=O)c2c[nH]c3ncc(-c4ccc(Cl)cc4)cc23)c1F + CC(Nc1ccc2c(c1)OCCn1cc(N3C(=O)OCC3C(F)F)nc1-2)C(N)=O = 92.3
• CC(C)n1nc(-c2ccc3oc(N)nc3c2)c2c(N)ncnc21 + CC(Nc1ncnc2nc[nH]c12)c1cc2cccc(Cl)c2c(=O)n1-c1ccccc1 = 108
• CCN1CCN(Cc2ccc(Nc3ncc(F)c(-c4cc(F)c5nc(C)n(C(C)C)c5c4)n3)nc2)CC1 + CC(Nc1ccc2c(c1)OCCn1cc(N3C(=O)OCC3C(F)F)nc1-2)C(N)=O = 76.2

====

# Test system: 361931-004-R-J1-PDC multicell spheroid viability
# Assay: Anticancer human tumor 361931-004-R-J1-PDC cell line growth inhibition [PI3K];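 also: spheroids exposed to agents for seven days before readout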
# Measurement parameters: second compound 0.0316 µM; first compound 1 µM; hits give low values
Observation type: viability, T/C (%)

* CC1(C)CCC(CN2CCN(c3ccc(C(=O)NS(=O)(=O)c4ccc(NCC5CCOCC5)c([N+](=O)[O-])c4)c(Oc4cnc5[nH]ccc5c4)c3)CC2)=C(c2ccc(Cl)cc2)C1 + CC(Nc1ncnc2nc[nH]c12)c1cc2cccc(Cl)c2c(=O)n1-c1ccccc1 | 93.4
* Cn1nccc1Nc1nccc(-c2ccn(C(CO)c3ccc(Cl)c(F)c3)c(=O)c2)n1 (configuration not stated) + Cc1nc(NC(=O)N2CCCC2C(N)=O)sc1-c1ccnc(C(C)(C)C(F)(F)F)c1 | 94.5
* CCCS(=O)(=O)Nc1ccc(F)c(C(=O)c2c[nH]c3ncc(-c4ccc(Cl)cc4)cc23)c1F + CC(Nc1ccc2c(c1)OCCn1cc(N3C(=O)OCC3C(F)F)nc1-2)C(N)=O | 83
* CC1(C)CCC(CN2CCN(c3ccc(C(=O)NS(=O)(=O)c4ccc(NCC5CCOCC5)c([N+](=O)[O-])c4)c(Oc4cnc5[nH]ccc5c4)c3)CC2)=C(c2ccc(Cl)cc2)C1 + COc1c(OCCCN2CCOCC2)ccc2c3n(c(=NC(=O)c4cnc(N)nc4)nc12)CCN3 | 90.4
* CNC(=O)c1ccc(N2C(=S)N(c3ccc(C#N)c(C(F)(F)F)c3)C(=O)C2(C)C)cc1F + COc1c(OCCCN2CCOCC2)ccc2c3n(c(=NC(=O)c4cnc(N)nc4)nc12)CCN3 | 90
* CCN1CCN(Cc2ccc(Nc3ncc(F)c(-c4cc(F)c5nc(C)n(C(C)C)c5c4)n3)nc2)CC1 + COc1c(OCCCN2CCOCC2)ccc2c3n(c(=NC(=O)c4cnc(N)nc4)nc12)CCN3 | 48.1
* C=CC(=O)N1CCN(c2nc(=O)n(-c3c(C)ccnc3C(C)C)c3nc(-c4c(O)cccc4F)c(F)cc23)C(C)C1 (configuration not stated) + CC(Nc1ncnc2nc[nH]c12)c1cc2cccc(Cl)c2c(=O)n1-c1ccccc1 | 104
* CC1(C)CCC(Nc2ncc(C(F)(F)F)c(-c3c[nH]c4c(P(C)(C)=O)c(C#N)ccc34)n2)CN1 (configuration not stated) + Cc1nc(NC(=O)N2CCCC2C(N)=O)sc1-c1ccnc(C(C)(C)C(F)(F)F)c1 | 79.9
* Cn1ncc(Cl)c1-c1cc(C(=O)NC(CN)Cc2cccc(F)c2)sc1Cl (configuration not stated) + COc1c(OCCCN2CCOCC2)ccc2c3n(c(=NC(=O)c4cnc(N)nc4)nc12)CCN3 | 61.6
* CC(Cn1ccc(-c2ccc(C#N)c(Cl)c2)n1)NC(=O)c1cc(C(C)O)[nH]n1 (configuration not stated) + Cc1nc(NC(=O)N2CCCC2C(N)=O)sc1-c1ccnc(C(C)(C)C(F)(F)F)c1 | 100
* CC(C)NCC(C(=O)N1CCN(c2ncnc3c2C(C)CC3O)CC1)c1ccc(Cl)cc1 (configuration not stated) + Cc1nc(NC(=O)N2CCCC2C(N)=O)sc1-c1ccnc(C(C)(C)C(F)(F)F)c1 | 56.2
* CC(C)NCC(C(=O)N1CCN(c2ncnc3c2C(C)CC3O)CC1)c1ccc(Cl)cc1 (configuration not stated) + COc1c(OCCCN2CCOCC2)ccc2c3n(c(=NC(=O)c4cnc(N)nc4)nc12)CCN3 | 70.6
* C#Cc1c(F)ccc2cc(O)cc(-c3ncc4c(N5CC6CCC(C5)N6)nc(OCC56CCCN5CC(F)C6)nc4c3F)c12 (configuration not stated) + CC(Nc1ncnc2nc[nH]c12)c1cc2cccc(Cl)c2c(=O)n1-c1ccccc1 | 102
* CC(Cn1ccc(-c2ccc(C#N)c(Cl)c2)n1)NC(=O)c1cc(C(C)O)[nH]n1 (configuration not stated) + CC(Nc1ccc2c(c1)OCCn1cc(N3C(=O)OCC3C(F)F)nc1-2)C(N)=O | 111
* C=CC(=O)N1CCN(c2nc(=O)n(-c3c(C)ccnc3C(C)C)c3nc(-c4c(O)cccc4F)c(F)cc23)C(C)C1 (configuration not stated) + COc1c(OCCCN2CCOCC2)ccc2c3n(c(=NC(=O)c4cnc(N)nc4)nc12)CCN3 | 94.7
* CNC(=O)c1ccc(N2C(=S)N(c3ccc(C#N)c(C(F)(F)F)c3)C(=O)C2(C)C)cc1F + Cc1nc(NC(=O)N2CCCC2C(N)=O)sc1-c1ccnc(C(C)(C)C(F)(F)F)c1 | 90.8
* CCCS(=O)(=O)Nc1ccc(F)c(C(=O)c2c[nH]c3ncc(-c4ccc(Cl)cc4)cc23)c1F + Cc1nc(NC(=O)N2CCCC2C(N)=O)sc1-c1ccnc(C(C)(C)C(F)(F)F)c1 | 99.7
* Cn1nccc1Nc1nccc(-c2ccn(C(CO)c3ccc(Cl)c(F)c3)c(=O)c2)n1 (configuration not stated) + COc1c(OCCCN2CCOCC2)ccc2c3n(c(=NC(=O)c4cnc(N)nc4)nc12)CCN3 | 64
* CCN1CCN(Cc2ccc(Nc3ncc(F)c(-c4cc(F)c5nc(C)n(C(C)C)c5c4)n3)nc2)CC1 + CC(Nc1ncnc2nc[nH]c12)c1cc2cccc(Cl)c2c(=O)n1-c1ccccc1 | 105
* C[C@@H](NC(=O)c1ncnc(N)c1Cl)c1ncc(C(=O)Nc2cc(C(F)(F)F)c(Cl)cn2)s1 + Cc1nc(NC(=O)N2CCCC2C(N)=O)sc1-c1ccnc(C(C)(C)C(F)(F)F)c1 | 97.3
* CC(Cn1ccc(-c2ccc(C#N)c(Cl)c2)n1)NC(=O)c1cc(C(C)O)[nH]n1 (configuration not stated) + COc1c(OCCCN2CCOCC2)ccc2c3n(c(=NC(=O)c4cnc(N)nc4)nc12)CCN3 | 93.4
* C[C@@H](NC(=O)c1ncnc(N)c1Cl)c1ncc(C(=O)Nc2cc(C(F)(F)F)c(Cl)cn2)s1 + CC(Nc1ccc2c(c1)OCCn1cc(N3C(=O)OCC3C(F)F)nc1-2)C(N)=O | 99
